Each entry below lists one item and its recorded GI50 value.
System: HCT-116 colon
experimental protocol: NCI tumour cell line growth inhibition, 48 h

CCOc1ccc2cc(-c3nn(CC4CCN(C)CC4)c4ncnc(N)c34)ccc2c1; 12.1 µM

Query: Would you mind telling me what GI50 value was observed for `C/C(=N\NC(=S)N1CCCC1)c1ccccn1` ?
Reply: < 0.01 µM

Query: Item: CN(Cc1cnc2nc(N)nc(N)c2n1)c1c(Cl)cc(C(=O)NC(CCC(=O)O)C(=O)O)cc1Cl (stereo not given)
Reply: < 0.01 µM

Query: Item: `COc1ccc(C(=O)c2ccccc2)c(O)c1`
Reply: 50.7 µM

Query: Item: `O=C(OCC1=CC(=O)c2ccccc2C1=O)c1ccccc1`
Reply: 15.5 µM

Query: Item: `COc1cc(N)c(Cl)cc1C(=O)N[C@@H]1CCN(CCCOc2ccc(F)cc2)C[C@@H]1OC`
Reply: 41.8 µM

Query: Item: `CN(C)CCN=c1nc2c(c(N)n1-c1ccccc1)c(=S)n(-c1ccccc1)c(=S)n2-c1ccccc1`
Reply: 2.24 µM

Query: Item: `Cc1c(-c2ccc(-c3ccccc3F)cc2)nc2ccc(F)cc2c1C(=O)O`
Reply: 0.5 µM

Query: Item: `COc1ccc2c(c1)[n+](=O)c(/C=C/C(=O)c1cc(OC)c(OC)c(OC)c1)c(C)n2[O-]`
Reply: 3.23 µM

Query: Item: CC(C)=CC(=O)OC1C2C(C)=CC(=O)C(O)C2(C)C2C3(O)OCC24C(CC(=O)OC14)C(C)C3O (stereo not given)
Reply: 0.02 µM

###

System: HT29 colon
experimental protocol: NCI tumour cell line growth inhibition, 48 h; in the data active means GI50 below about 0.43 µM; inactive means the rest
A correct response names exactly one class from Y (active), N (inactive)

CN(Cc1cnc2nc(N)nc(N)c2n1)c1c(Cl)cc(C(=O)NC(CCC(=O)O)C(=O)O)cc1Cl (stereo unspecified); Y
COC(=O)c1c(C(=O)O)c(-c2ccccc2)c(-c2ccccc2)c(-c2ccccc2)c1-c1ccccc1; N
CC(C)(O)c1cc(Nc2cc(Oc3cn(C4CC4)nc3C3CCOCC3)ccn2)ccn1; N
C/C(=N\NC(=S)N1CCCC1)c1ccccn1; Y
COc1ccc(C2=NNC(c3sc(Cl)nc3Cl)C2)cc1 (stereo unspecified); N

Would you kindly look at the next entry?
Query: Record lookup: outcome of this test for `CCOC(=O)/C=C/c1ccc([N+](=O)[O-])o1` ?
Reply: N

###

Each entry below lists one item and its recorded TGI value.
System: CAKI-1 renal
experimental protocol: NCI tumour cell line growth inhibition, 48 h

Recorded TGI, per entry:
CNC(=O)NCCCCC(NC(C)=O)C(=O)NCc1ccccc1 (stereo unspecified); > 100 µM
O=C(NNC(=O)c1ccc(Cl)cc1NC(=O)C12CC3CC(CC(C3)C1)C2)c1ccc(Cl)cc1; 73.6 µM
CCOP(=O)(OCC)C(c1ccccc1)N(C(=O)NC(F)(F)F)c1ccc(C)cc1 (stereo unspecified); > 100 µM
CCNc1ccc2c(c1)C(=O)N(OS(C)(=O)=O)C2=O; > 100 µM
O=C(NCCCN1CCN(CCCNC(=O)Nc2cc(Cl)ccc2Cl)CC1)Nc1cc(Cl)ccc1Cl; > 100 µM

API: the following record is the query input.
Query: Would you mind telling me what TGI value was observed for `COc1ccc(N=C(C)C(C)=Nc2ccc(OC)cc2)cc1` ?
Reply: > 100 µM

###

System: K-562 leukemia
experimental protocol: NCI tumour cell line growth inhibition, 48 h; in the data active means GI50 below about 0.43 µM; inactive means the rest
A correct response names exactly one class from active, inactive

COc1ccc(N=c2nc3sc4cc(Cl)ccc4n3c(N)c2C#N)cc1; inactive
CCOc1ccc2cc(-c3nn(CC4CCN(C)CC4)c4ncnc(N)c34)ccc2c1; inactive
CCOC(=O)c1sc(NC(=O)COc2ccc(/C=C3\CCc4cc(OC)ccc4C3=O)cc2)nc1C; inactive
COc1ccc(CN2c3ccccc3Sc3ccccc32)cc1O; active

Query: Record lookup: outcome of this test for C[C@]12CCC3c4ccc(O)cc4CCC3C1CC[C@@H]2NC(=O)/C=C/c1ccc(O)c(O)c1 (some centres undefined) ?
Reply: inactive

Query: Item: COc1cccc(C2C(C#N)=C(N)Oc3cc(OCCCCCC[P+](c4ccccc4)(c4ccccc4)c4ccccc4)ccc32)c1 (centres undefined)
Reply: active

Query: Item: COc1cc(C2CC(c3ccc(Cl)cc3)=NN2C(C)=O)ccc1Oc1ccnc2cc(Cl)ccc12 (centres undefined)
Reply: inactive

Query: Item: COc1ccc(C2=NNC(c3sc(Cl)nc3Cl)C2)cc1 (centres undefined)
Reply: inactive

Query: Item: CC(C)=CC(=O)OC1C2C(C)=CC(=O)C(O)C2(C)C2C3(O)OCC24C(CC(=O)OC14)C(C)C3O (centres undefined)
Reply: active

###

Tested on: UACC-257 melanoma
experimental protocol: NCI tumour cell line growth inhibition, 48 h
Each entry below lists one item and its recorded TGI value.

Query: Would you mind telling me what TGI value was observed for CNC(=O)NCCCCC(NC(C)=O)C(=O)NCc1ccccc1 (stereo unspecified) ?
Reply: > 100 µM

Query: Item: `Cc1cccc(C=NC23CC4CC(CC(C4)C2)C3)c1`
Reply: > 100 µM

Query: Item: `Cc1c2oc(=O)c(C#N)cc2c2ccccn12`
Reply: > 100 µM

Query: Item: `O=Cc1c2c(cc3c1CC1(C3)Cc3cc4c(c(C=O)c3C1)CCC4)CCC2`
Reply: > 100 µM

Query: Item: CC1(C)Cc2ccccc2C(C)(Cl)C(=O)N1 (stereo unspecified)
Reply: > 10 µM

###

System: A498 renal
experimental protocol: NCI tumour cell line growth inhibition, 48 h; in the data active = GI50 below about 0.43 µM; inactive = the rest
A correct response names exactly one class from active, inactive

Known results for compounds:
CCOc1ccc2cc(-c3nn(CC4CCN(C)CC4)c4ncnc(N)c34)ccc2c1; inactive
COc1ccc(C2=NNC(c3sc(Cl)nc3Cl)C2)cc1 (stereo unspecified); inactive
CC(C)=CC(=O)OC1C2C(C)=CC(=O)C(O)C2(C)C2C3(O)OCC24C(CC(=O)OC14)C(C)C3O (stereo unspecified); active
CCCCS(=O)(=O)c1cc(Nc2ccc(O)c3c2C(=O)c2ccccc2C3=O)ccc1C; inactive
COc1ccc(/C=C(\C#N)c2cc(OC)c(OC)c(OC)c2)cc1; active

Would you kindly look at the next entry?
Query: Record lookup: outcome of this test for CN(Cc1cnc2nc(N)nc(N)c2n1)c1c(Cl)cc(C(=O)NC(CCC(=O)O)C(=O)O)cc1Cl (stereo unspecified) ?
Reply: active

###

System: NCI-H522 lung
experimental protocol: NCI tumour cell line growth inhibition, 48 h; in the data active = GI50 below about 0.43 µM; inactive = the rest
A correct response names exactly one class from active, inactive

Known results for compounds:
COc1cccc(C2C(C#N)=C(N)Oc3cc(OCCCCCC[P+](c4ccccc4)(c4ccccc4)c4ccccc4)ccc32)c1 (centres undefined); inactive
CN(Cc1cnc2nc(N)nc(N)c2n1)c1c(Cl)cc(C(=O)NC(CCC(=O)O)C(=O)O)cc1Cl (centres undefined); active
CC(C)(C)OC(=O)NCCCCCCCCCCCCn1c2c(c3ccccc3c1=O)C(=O)c1ccccc1-2; inactive
N.N.N.N.O=S([O-])[O-].[Co+3].[N-]=[N+]=[N-]; inactive
C/C(=N\NC(=S)N1CCCC1)c1ccccn1; active
COc1ccc(C(=O)Cn2c(C(=O)c3ccc(Cl)cc3)nc(-c3ccccc3)c2-c2ccccc2)cc1; inactive

Query: Record lookup: outcome of this test for `CN(CCOc1ccc(NS(C)(=O)=O)cc1)CCc1ccc(NS(C)(=O)=O)cc1` ?
Reply: inactive

Query: Item: O=C(O)C(Cc1ccccc1)N1C(=O)/C(=C/C(Cl)=C/c2ccc([N+](=O)[O-])cc2)SC1=S (centres undefined)
Reply: inactive

Query: Item: `C=C(CN1CCc2ccccc2C1)c1ccc(CCCC(=O)Nc2ccccc2N)cc1`
Reply: inactive

###

Test system: HOP-62 NSCLC
experimental protocol: NCI tumour cell line growth inhibition, 48 h
Each entry below lists one item and its recorded GI50 value.

Recorded GI50, per entry:
COc1ccc2c(CN3CCCC[C@H]3O)cc3cc4c(cc3c2c1)OCO4; 0.541 µM
CSCc1ncc(-c2ccc(C(F)(F)F)cc2)c(NC2CCCCCC2)n1; > 10 µM
S=C(Nc1ccc(-c2nc3ccccc3s2)cc1)Nc1ccc(-c2nc3ccccc3s2)cc1; 37.5 µM
CC(C)(O)c1cc(Nc2cc(Oc3cn(C4CC4)nc3C3CCOCC3)ccn2)ccn1; > 100 µM

API: the following record is the query input.
Query: Would you mind telling me what GI50 value was observed for `CCOC(=O)c1sc(NC(=O)COc2ccc(/C=C3\CCc4cc(OC)ccc4C3=O)cc2)nc1C` ?
Reply: 15.2 µM

###

Tested on: A549 NSCLC
experimental protocol: NCI tumour cell line growth inhibition, 48 h
Each entry below lists one item and its recorded TGI value.

O=C(Nc1ccccc1)N1C(c2ccccc2)=N[C@@H](c2ccccc2)[C@@H]1c1ccccc1; 52 µM

Query: Would you mind telling me what TGI value was observed for `CN(CCOc1ccc(NS(C)(=O)=O)cc1)CCc1ccc(NS(C)(=O)=O)cc1` ?
Reply: > 100 µM

Query: Item: `COc1ccc(N=c2nc3sc4cc(Cl)ccc4n3c(N)c2C#N)cc1`
Reply: > 100 µM

Query: Item: `Cc1cc(C)c(-c2c(O)c(Br)c(-c3c(C)cc(C)c(Br)c3C)c(O)c2Br)c(C)c1Br`
Reply: 11.7 µM

Query: Item: `O=c1[nH]c(=S)[nH]c2c1CCCN2`
Reply: > 100 µM

Query: Item: CC1(C)CC(=O)C2=C(C1)NC(=S)C(C#N)C2c1ccccc1 (stereo unspecified)
Reply: > 100 µM

Query: Item: `CC(C)(C)OC(=O)NCC(c1c[nH]c2ccccc12)c1c[nH]c2ccccc12`
Reply: 29.2 µM

Query: Item: `NCCCNCCSP(=O)(O)O`
Reply: > 750 µM

Query: Item: CC(C)(C)c1cc(C(C)(C)C)c(SC2OC(CO)C(O)C(O)C2O)c(O)c1O (stereo unspecified)
Reply: 21.3 µM

Query: Item: CN1C2C=CC(=O)C1C(C#N)C2 (stereo unspecified)
Reply: > 100 µM

Query: Item: `Cc1cc(C)nc(NC(=O)COc2ccc(Cl)cc2)c1`
Reply: > 100 µM
